Assay Info: BmaI1 acyl-homoserine lactone synthase inhibition – biochemical, fluorescence intensity, with counterscreen (AID 720554)
Assay Setup: BmaI1 enzyme assay, measured here: counterscreen fluorescence % control, concentration not given here
Screen size: about 12,000 compounds; about 45 (0.4%) were called active. The sample holds actives, similar compounds and a random draw of the others, so the mix is not that of the screen.
Property: inhibition (%)

CCn1c(=O)c(=O)[nH]c2cc(C(=O)Nc3ccccc3N3CCOCC3)ccc21
19.5
COP1(=S)/C(=C2/N(C)c3ccccc3C2(C)C)C=NN1C (configuration not stated)
6
COc1ccc(Cc2nnc3n2N=C(c2ccc(CNC(C)=O)o2)CS3)cc1
6
Oc1ccc(/C=N/NC(=S)Nc2ccc(Cl)cc2Cl)c(O)c1O
15.5
Cc1ccc(NC(=O)Nc2ccc3c(c2)C(=O)NC3=O)cc1
14
O=C1NC(c2cccc(O)c2O)Nc2sc3c(c21)CCC3 (configuration not stated)
19
Cc1ccc(Cl)cc1N1CCN(Cn2sc3ccccc3c2=O)CC1
8.5
CC(=O)NCCc1ccc(-c2csc(N)n2)cc1
41
CN1/C(=C2\C=NN(C)P2(=O)Nc2ccccc2)C(C)(C)c2ccccc21 (configuration not stated)
5
Cc1nc(N2CCCCC2)sc1C1Sc2ccccc2NC1=O (configuration not stated)
-5
Cc1csc(=O)n1CN1CCN(C(=O)C2COc3ccccc3O2)CC1 (configuration not stated)
7.5
CN1/C(=C2\C=NN(C)P2(=S)N2CCCC2)C(C)(C)c2ccccc21 (configuration not stated)
10
CC(=O)NCc1ccc(-c2csc(N)n2)o1
17.5
Cc1ccc(NC(=O)Nc2ccc(N(C)C)cc2)cc1
3.5
O=C(OCC1CCCCC1)c1n[nH]c2ccccc12
12.5
CC1(C)CC(NCc2cc(Cl)c3c(c2)OCCCO3)CC(C)(C)N1
4.5
Fc1ccccc1NC(=S)N/N=C/c1cn(-c2ccccc2)nc1-c1cc2ccccc2o1
2.5
